Experiment: Toxicity in po dosed mouse assessed as lethal dose
Type: organism-based
Settings: in vivo
TEST READOUT: LD50 (mg/kg)
Unit mg/kg implied. Number only.

Query block: Dear colleague, I am looking for the recorded LD50 of the following compound: CC1=C(O)C(=O)C=C2C1=CC=C1[C@@]2(C)CC[C@@]2(C)[C@@H]3C[C@](C)(C(=O)O)CC[C@]3(C)CC[C@]12C
Result block: 20.5
